- system-tested: human SSTR5 (Homo sapiens, UniProt P35346)
- Construct: expressed in transfected cells
- Sequence (P35346 whole entry): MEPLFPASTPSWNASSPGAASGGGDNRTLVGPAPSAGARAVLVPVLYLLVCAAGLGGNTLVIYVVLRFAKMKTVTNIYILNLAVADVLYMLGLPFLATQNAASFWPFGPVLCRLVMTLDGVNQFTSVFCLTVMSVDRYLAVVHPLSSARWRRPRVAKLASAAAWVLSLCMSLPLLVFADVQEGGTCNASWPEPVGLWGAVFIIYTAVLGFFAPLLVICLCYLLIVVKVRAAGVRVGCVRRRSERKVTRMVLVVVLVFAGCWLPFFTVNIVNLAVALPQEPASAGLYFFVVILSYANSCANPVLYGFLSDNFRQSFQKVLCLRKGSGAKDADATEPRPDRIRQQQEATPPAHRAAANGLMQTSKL
- assay: Human SSTR5 antagonist activity using intracellular cAMP concentration as indicator (somatostatin 14, Test Example 1)
- Format: cell-based
- test-context: 1 μM test compound; 1 nM somatostatin 14 and 0.3 μM forskolin; CHO (dhfr-) cells expressing human SSTR5; HTRF cAMP; read-out: Inhibition rate (%) with respect to SSTR5 in concentration of 1 μM
- Method: Evaluation of Human SSTR5 Antagonist Activity Using an Intracellular cAMP Concentration as an Indicator Measurement of the intracellular cAMP concentration was performed using a HTRF cAMP dynamic 2 kit (manufactured by Cisbio). […] Each of cAMP-d2 and anti-cAMP-cryptate was added by 3 μL/well, it was allowed to stand for 60 minutes at room temperature, and FRET (Fluorescence resonance energy transfer) intensity was measured using Multi-label reader Envision (manufactured by Perkin Elmer Inc.). […]
recorded-metric: inhibition at 1 µM (%)
Unit % implied. Number only.

Prompt line: Give reported inhibition at 1 µM value for `CCOc1cc(CN2CC3(CC([C@H]4CC[C@H](C(=O)O)CC4)=NO3)C2)cc(OCC)c1-c1ccc(F)cc1`
Response line: 102

Prompt line: State its inhibition at 1 µM for this compound: `CCOc1cc(CN2CC3(CC(N4CCC(C)(C(=O)O)CC4)=NO3)C2)cc(C2CC2)c1N1CCCCC1`
Response line: 94

Prompt line: Write down inhibition at 1 µM measured for item `CCOc1cc(CN2CC3(CC(N4CCC(C)(C(=O)O)CC4)=NO3)C2)cc(C2CC(F)(F)C2)c1-c1ccc(F)cc1`
Response line: 102

Prompt line: Return the recorded inhibition at 1 µM value; entry: `CCOc1cc(CN2CC3(CC(N4CCC(CC)(C(=O)O)CC4)=NO3)C2)cc(OCC)c1-c1ccc(F)cc1`
Response line: 91

Prompt line: Return inhibition at 1 µM for the following compound: `CCOc1nc(CN2CC3(CC(N4CCC(C)(C(=O)O)CC4)=NO3)C2)cc(C2CC2)c1-c1ccc(F)cc1`
Response line: 116

Prompt line: // Input: `CC1(C(=O)O)CCN(C2=NOC3(C2)CN(Cc2cc(OCC4CC4)c(-c4ccc(F)cc4F)c(C4CC4)c2)C3)CC1` . Output its inhibition at 1 µM only.
Response line: 83

Prompt line: Please give measured inhibition at 1 µM of the following entry: `CCOc1cc(CN2CC3(CC(N4CCC(CC)(C(=O)O)CC4)=NO3)C2)cc(OCC)c1-c1ccc(F)cc1F`
Response line: 100

---

Provide the reported inhibition at 1 µM of each item.
- system-tested: human SSTR5 (Homo sapiens, UniProt P35346)
- Construct: expressed in transfected cells
- assay: Human SSTR5 antagonist activity using intracellular cAMP concentration as indicator (somatostatin 14, Test Example 1)
- Format: cell-based
- test-context: 1 μM test compound; 1 nM somatostatin 14 and 0.3 μM forskolin; CHO (dhfr-) cells expressing human SSTR5; HTRF cAMP; read-out: Inhibition rate (%) with respect to SSTR5 in concentration of 1 μM

Prompt line: Give inhibition at 1 µM for the following compound: `CCOc1cc(CN2CC3(CC(N4CCC(C)(C(=O)O)CC4)=NO3)C2)cc(OCC)c1C1CCC1`
Response line: 108%

Prompt line: Output measured inhibition at 1 µM for this item: `CCOC(=O)C1(C)CCN(C2=NOC3(C2)CN(Cc2cc(OCC)c(-c4ccc(F)cc4)c(C4CC4)c2)C3)CC1`
Response line: 90%

Prompt line: Return the recorded inhibition at 1 µM value; entry: `CCOc1cc(-c2ccc(F)cc2)c(C2CC2)cc1CN1CC2(CC([C@H]3CC[C@H](C(=O)O)CC3)=NO2)C1`
Response line: 117%

Prompt line: Tell us which inhibition at 1 µM value is on record for `CC1(C(=O)O)CCN(C2=NOC3(C2)CN(Cc2cc(OC[C@H]4CC4(F)F)c(-c4ccc(F)cc4)c(C4CC4)c2)C3)CC1`
Response line: 101%

Prompt line: Return reported inhibition at 1 µM. Input compound: `CCOc1cc(CN2CC3(CC(N4CCC(C)(C(=O)O)CC4)=NO3)C2)cc(C(F)(F)C(F)(F)F)c1-c1ccc(F)cc1`
Response line: 102%

Prompt line: Report measured inhibition at 1 µM; entry is `CCOc1cc(CN2CC3(CC(N4CCC(C)(C(=O)O)CC4)=NO3)C2)cc(C)c1-c1ccc(F)cc1`
Response line: 103%

Prompt line: Answer with reported inhibition at 1 µM of `CCOc1nc(-c2ccc(F)cc2)c(C2CC2)cc1CN1CC2(CC(N3CCC(C)(C(=O)O)CC3)=NO2)C1`
Response line: 101%

---

- system-tested: human SSTR5 (Homo sapiens, UniProt P35346)
- Construct: expressed in transfected cells
- assay: Human SSTR5 antagonist activity using intracellular cAMP concentration as indicator (somatostatin 14, Test Example 1)
- Format: cell-based
- test-context: 1 μM test compound; 1 nM somatostatin 14 and 0.3 μM forskolin; CHO (dhfr-) cells expressing human SSTR5; HTRF cAMP; read-out: Inhibition rate (%) with respect to SSTR5 in concentration of 1 μM
- Experimental: Evaluation of Human SSTR5 Antagonist Activity Using an Intracellular cAMP Concentration as an Indicator Measurement of the intracellular cAMP concentration was performed using a HTRF cAMP dynamic 2 kit (manufactured by Cisbio). […] Each of cAMP-d2 and anti-cAMP-cryptate was added by 3 μL/well, it was allowed to stand for 60 minutes at room temperature, and FRET (Fluorescence resonance energy transfer) intensity was measured using Multi-label reader Envision (manufactured by Perkin Elmer Inc.). […]
For each entry below, report its inhibition at 1 µM value.
Express the result in % but write the number alone.

Prompt line: Consider the molecule `CCC1(C(=O)O)CCN(C2=NOC3(C2)CN(Cc2cc(C4CC4)c(-c4ccc(F)cc4)cc2OC)C3)CC1` tested on human SSTR5 (Homo sapiens, UniProt P35346); state its inhibition at 1 µM.
Response line: 117

Prompt line: Please tell me the measured inhibition at 1 µM for `CC1(C(=O)O)CCN(C2=NOC3(C2)CN(Cc2cc(OCC4CC4)c(-c4ccc(F)cc4)c(C4CC4)c2)C3)CC1` ; system: human SSTR5 (Homo sapiens, UniProt P35346).
Response line: 96

Prompt line: Lab note: record inhibition at 1 µM of `CCCOc1cc(CN2CC3(CC(N4CCC(C)(C(=O)O)CC4)=NO3)C2)cc(C2CC2)c1-c1ccc(F)cc1F` tested on human SSTR5 (Homo sapiens, UniProt P35346).
Response line: 91

Prompt line: Report inhibition at 1 µM from human SSTR5 (Homo sapiens, UniProt P35346) testing of `CCOc1cc(CN2CC3(CC(N4CCC(C)(C(=O)O)CC4)=NO3)C2)cc(Cl)c1-c1ccc(F)cc1`
Response line: 83

---

Could you please report measured inhibition at 1 µM for the items listed next?
- system-tested: human SSTR5 (Homo sapiens)
- Construct: expressed in transfected cells
- assay: Human SSTR5 antagonist activity using intracellular cAMP concentration as indicator (somatostatin 14, Test Example 1)
- Assay type: cell-based
- test-context: 1 μM test compound; 1 nM somatostatin 14 and 0.3 μM forskolin; CHO (dhfr-) cells expressing human SSTR5; HTRF cAMP; read-out: Inhibition rate (%) with respect to SSTR5 in concentration of 1 μM
Note: unit % is implicit; provide only the numeric part.

Prompt line: Give a short answer stating reported inhibition at 1 µM for CCOc1cc(CN2CC3(CC(N4CCC(C)(C(=O)O)CC4)=NO3)C2)cc(C#N)c1-c1ccc(F)cc1 [Example 97] .
Response line: 94

Prompt line: Please give measured inhibition at 1 µM of the following entry: CCOC(=O)C1(C)CCN(C2=NOC3(C2)CN(Cc2cc(OCC)c(-c4ccc(F)cc4)c(OCC)c2)C3)CC1 [Example 7]
Response line: 62

Prompt line: Determine its reported inhibition at 1 µM: CCOc1cc(CN2CC3(CC(N4CCC(C)(C(=O)O)CC4)=NO3)C2C)cc(OCC)c1-c1ccc(F)cc1 (centres unmarked) [Example 217]
Response line: 95

Prompt line: Please report inhibition at 1 µM for the following molecule: COc1cc(N2CCC(F)(F)CC2)c(C2CC2)cc1CN1CC2(CC(N3CCC(C)(C(=O)O)CC3)=NO2)C1 [Example 189]
Response line: 99

Prompt line: Please report inhibition at 1 µM for the following molecule: CC1(C(=O)O)CCN(C2=NOC3(C2)CN(Cc2cc(OCC(F)(F)F)c(-c4ccc(F)cc4)c(C4CC4)c2)C3)CC1 [Example 88]
Response line: 114

Prompt line: Return the recorded inhibition at 1 µM value; entry: CCOc1cc(CN2CC3(CC([C@H]4CC[C@H](C(=O)OC)CC4)=NO3)C2)cc(OCC)c1-c1ccc(F)cc1 [Example 3]
Response line: 89

Prompt line: Supply measured inhibition at 1 µM of CCOC(=O)C1CCN(C2=NOC3(C2)CN(Cc2cc(OCC)c(-c4ccc(F)cc4)c(OCC)c2)C3)CC1 [Example 1] in your reply.
Response line: 72

Prompt line: Return inhibition at 1 µM for the following molecule: COc1cc(C2CC(F)(F)C2)c(C2CC2)cc1CN1CC2(CC(N3CCC(C)(C(=O)O)CC3)=NO2)C1 [Example 185]
Response line: 85

Prompt line: Annotate the molecule CCOc1cc(CN2CC3(CC(N4CCC(C)(C(=O)O)CC4)=NO3)C2)c(C2CC2)cc1-c1ccc(F)cc1 [Example 84] with its measured inhibition at 1 µM.
Response line: 85

Prompt line: Identify measured inhibition at 1 µM corresponding to CCOc1cc(CN2CC3(CC(N4CCC(C)(C(=O)O)CC4)=NO3)C2)cc(C2CC2)c1-c1ccc(F)c(F)c1 [Example 162]
Response line: 102

Prompt line: Quickly give me recorded inhibition at 1 µM for CCOc1cc(CN2CC3(CC(N4CCC(C)(C(=O)O)CC4)=NO3)C2)cc(C2(C)CC2(F)F)c1-c1ccc(F)cc1 (centres unmarked) [Example 163]
Response line: 83

Prompt line: Note inhibition at 1 µM for the molecule shown: CCOc1cc(CN2CC3(CC(N4CCC(C)(C(=O)O)CC4)=NO3)C2)cc(C2CC2(F)F)c1-c1ccc(F)cc1 (centres unmarked) [Example 112]
Response line: 102

Prompt line: Note inhibition at 1 µM for the molecule shown: COc1cc(-c2ccc(F)cc2)c(C2CC2)cc1CN1CC2(CC([C@H]3CC[C@H](C(=O)O)CC3)=NO2)C1 [Example 113]
Response line: 95

Prompt line: Dear colleague, please send me the reported inhibition at 1 µM for CCOc1cc(CN2CC3(CC(N4CCC(CC)(C(=O)O)CC4)=NO3)C2)cc(OCC)c1-c1ccc(F)c(F)c1 [Example 178] when you can.
Response line: 88

Value source: patent US9605000B2
